# experimental-target: 5-HT2B Receptors (Homo sapiens)
# Sequence (P41595 whole entry): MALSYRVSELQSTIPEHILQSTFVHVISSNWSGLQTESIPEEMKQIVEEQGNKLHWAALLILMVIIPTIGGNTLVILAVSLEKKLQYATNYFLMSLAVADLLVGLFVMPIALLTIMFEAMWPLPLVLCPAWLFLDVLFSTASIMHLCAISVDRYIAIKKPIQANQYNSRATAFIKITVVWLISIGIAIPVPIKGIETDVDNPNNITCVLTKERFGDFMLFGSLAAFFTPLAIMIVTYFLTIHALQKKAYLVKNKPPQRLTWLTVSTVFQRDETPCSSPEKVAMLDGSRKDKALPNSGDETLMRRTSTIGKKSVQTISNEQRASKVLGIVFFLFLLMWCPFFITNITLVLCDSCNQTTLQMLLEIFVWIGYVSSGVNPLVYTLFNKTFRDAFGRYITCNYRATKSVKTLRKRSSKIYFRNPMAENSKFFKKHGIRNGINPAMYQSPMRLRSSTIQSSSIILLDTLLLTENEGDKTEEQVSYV
# protocol-text: Antagonist activity assay (FLIPR, CHO-K1/5-HT2B stable cell line)
# settings: CHO-K1/5-HT2B cells, antagonist mode vs EC80 5-HT
pIC50: −log10 of the molar value.
value-kind: pIC50

In the examples that follow, each entry is paired with its recorded pIC50.
smiles-text	pIC50
CCCOC(=O)c1cccc(NC2=NC(N)=NC3(CCCCC3)N2)c1	7.74
CCNC(=O)c1cccc(NC2=NC(N)=NC3(CCCCC3)N2)c1	6.98
CCOC(=O)c1cccc(NC2=NC(N(C)C)=NC3(CCCCC3)N2)c1	6.55
COc1ccc(OC)c(NC2=NC(N)=NC3(CCCCC3)N2)c1	6.21
Cc1ccc(NC2=NC(N)=NC3(CCCCC3)N2)cc1	6.31
CCOC(=O)c1cccc(NC2=NC(N)=NC3(CCCCC3)N2)c1	7.56

I. CCCC(=O)c1cccc(NC2=NC(N)=NC3(CCCCC3)N2)c1
II. Cc1cc(C)cc(NC2=NC(N)=NC3(CCCCC3)N2)c1
III. Cc1ccc(NC2=NC(N)=NC3(CCCCC3)N2)cc1C
IV. COc1cccc(NC2=NC(N)=NC3(CCCCC3)N2)c1
# input Output the entries ranked by pIC50 from maximum down to minimum. Answer by writing out the labels in the requested order.
# output I, III, IV, II
(I: 7.45, III: 6.75, IV: 6.55, II: 6.32)
